test.protocol: modifiers of HSF1 nuclear foci, imaging, Selleck Cancer Library (AID 1347162)
protocol.conditions: human cells, at 10 µM; stronger effect = lower value
property.measured: plate-normalised HSF1 focus index
Give a plain numeric answer without units written out.

Answered examples (6):
>>> meas_value("Cc1ccc(S(=O)(=O)/C=C/C#N)cc1")
0.628
>>> meas_value("Cc1[nH]c(/C=C2\\C(=O)Nc3ccc(S(=O)(=O)Cc4c(Cl)cccc4Cl)cc32)c(C)c1C(=O)N1CCC[C@@H]1CN1CCCC1")
1.05
>>> meas_value("COc1cc2c(cc1O)CC[C@@H]1[C@@H]2CC[C@]2(C)[C@@H](O)CC[C@@H]12")
1.07
>>> meas_value("CCOC(=O)C(C)Oc1cccc2c(=O)n(CC(=O)Nc3ccc4c(c3)OCCO4)ccc12 (stereo unspecified)")
1.06
>>> meas_value("CN(C)CCOc1ccc(/C(=C(/CCCl)c2ccccc2)c2ccccc2)cc1")
0.417
>>> meas_value("CC(C)C[C@@H](C(=O)N[C@H](C(=O)OC1CCCC1)c1ccccc1)[C@H](O)C(=O)NO")
1.19

Query: Returns the measured plate-normalised HSF1 focus index for the input compound. Input: O=c1[nH]c(-c2ccc(C(F)(F)F)cc2)nc2c1CSCC2
Reply: 1.12

Query: Returns the measured plate-normalised HSF1 focus index for the input compound. Input: O=C(O)c1ccc2cc(-c3ccc(O)c(C45CC6CC(CC(C6)C4)C5)c3)ccc2c1
Reply: 1.1

Query: Returns the measured plate-normalised HSF1 focus index for the input compound. Input: Nc1nccc(-c2ccc3noc(-c4ccc(Cl)cc4)c3c2)n1
Reply: 1.19

Query: Returns the measured plate-normalised HSF1 focus index for the input compound. Input: N.N.O=C(O)C1(C(=O)O)CCC1.[Pt]
Reply: 1.08

Query: Returns the measured plate-normalised HSF1 focus index for the input compound. Input: COc1ccc(-c2oc3cc(OC)ccc3c2C(=O)c2ccc(C#N)cc2)cc1
Reply: 1.2

###

This listing pairs compounds with measured normalised cell number.
test.protocol: differential killing of epithelial or mesenchymal cells, primary screen, imaging, PC-3E GFP, TEM4-18 mCherry, co-culture (AID 1345086);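 further: cells exposed to compound for 72 h before imaging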
protocol.conditions: imaging cell counts, measured here: mesenchymal TEM4-18 mCherry cell survival, at 1 µM
Give a plain numeric answer without units written out.

>>> meas_value("CC1=C(C(=O)O)N2C(=O)[C@@H](NC(=O)C(N)c3ccc(O)cc3)[C@H]2SC1 (stereo not given in full)")
1.4
>>> meas_value("C[C@]12C=CC(=O)C=C1CCC1C2C(=O)C[C@@]2(C)C1CC[C@]2(O)C(=O)CO (stereo not given in full)")
1.1
>>> meas_value("COC(=O)C1O[C@H](O[Si](C)(C)C(C)(C)C)[C@@H](O)[C@@H](OC(=O)c2ccccc2)C1OC(=O)c1ccccc1 (stereo not given in full)")
1.15

Query: Returns the measured normalised cell number for the input compound. Input: C[C@H]1OC(n2cc(F)c(=O)[nH]c2=O)C(O)[C@@H]1O (stereo not given in full)
Reply: 1.16

Query: Returns the measured normalised cell number for the input compound. Input: C=C/C(C)=C\CC1[C@](C)(O)CC[C@H]2C(C)(C)CCC[C@]12C (stereo not given in full)
Reply: 1.2

Query: Returns the measured normalised cell number for the input compound. Input: Cc1nc(N)cc(C[n+]2csc(CCO)c2C)n1
Reply: 0.87

Query: Returns the measured normalised cell number for the input compound. Input: O=C(O)c1ccccc1-c1c2cc(I)c(=O)c(I)c-2oc2c(I)c(O)c(I)cc12
Reply: 0.5

Query: Returns the measured normalised cell number for the input compound. Input: C[C@]12CCC3c4ccc(OC(=O)c5ccccc5)cc4CCC3C1CCC2=O (stereo not given in full)
Reply: 1.05

Query: Returns the measured normalised cell number for the input compound. Input: C[N+](C)(C)CCOP(=O)([O-])OP(=O)(O)OC[C@H]1OC(n2ccc(N)nc2=O)[C@H](O)[C@@H]1O (stereo not given in full)
Reply: 1.22

Query: Returns the measured normalised cell number for the input compound. Input: O=C(O)[C@@H](S)[C@@H](S)C(=O)O
Reply: 1.1
